assay_explanation: yeast display, Sf9 membrane polyspecificity reagent, FACS + sequencing; frameworks hold sequencing errors
parameter_measured: polyreactivity (PSR sort gate)

Here's what some known entries look like.
QVQLVESGGGLVQAGGSLRLSCAASGFIFGLNAMGWYRQAPGKERELVAVIAFSGGSTYYADSVKGRFTISRDNAKNTVYLQMNSLKPEDTAVYYCNAVTRYPHPREYDYWGQGTQVTVSS :: high polyreactivity
QVQLVESGGGLVQAGGSLRLSCAASGSTFRYNTMGWYRQAPGKERELVAAISTSGGTTYYADSVKGRFTISRDNAKNTVYLQMNSLKPEDTAVYYCAARPFPRRWYGAEDYYWGQGTQVTVSS :: high polyreactivity
QVQLVESGGGLVQAGGSLRLTCAASGSTFVINVMGWYRQAPGKERELVAAISNGGRTYADSVKGRFTISRDNAKNTVYLQMNSLKPEDTAVYYCAADVSFTQSDGRLAEYGYWGQGTQVTVSS :: low polyreactivity
QVQLVESGGGLVQAGGSLRLSCAASGSTFPLYAMGWYRQAAGKEWELVAAITSGGGNTYYADSVKGRFTISRDNAKNTVYLQMNSLKPEDTAVYYCAAVGGYKSYYSYEYDYWGQGTQETVSS :: low polyreactivity

Data request: Please give the documented polyreactivity (PSR sort gate) of `QVQLVESGGGLVQAGGSLRLSCAASGSIFPPYAMGWYRQAPGKERELVATITIRGGSTYYADSVKGRFTISRDNAKNSVYLQMNSLKPEDTAVYYCAADYTKYYRRYYYWGQGTQVTVSS`
Data returned: high polyreactivity

Data request: Please give the documented polyreactivity (PSR sort gate) of `QVQHVESVGGLVQAGGSLRLSCAASGYIFDYYDIGWYRQAPGKERELVAAINWSGGNTYYADSVKGRFTISRDNAKNTVYLQMKSLKPEDTAVYYCNADPTWSLEYGYWGQGTQVTVSS`
Data returned: low polyreactivity

Data request: Please give the documented polyreactivity (PSR sort gate) of `QVQLVESGGGLVQAGGSLRLSCAASGSIFTLYAMGWYRQAPGKERELVATINWSGGSTSYADSVKGRFTISRDNAKNTVYLQMNSLKPEDTAVYYCAADAGSYDALDYSDLLYDYWGQGTQVTVSS`
Data returned: low polyreactivity

Data request: Please give the documented polyreactivity (PSR sort gate) of `QVQLVESGGGLVQAGGSLRLSCAASGRTFYDYAKGWYRQAPGKERELVASITYYADSVKGRFTISRDNAKNTVYLQMNSLKPEDTSVYYCAKDLYSNDLYRRYDYWGQGTQVTVSS`
Data returned: low polyreactivity

Data request: Please give the documented polyreactivity (PSR sort gate) of `QVQLVESGGWLVQAGGSLRLSCAASGSTFEDYVMGWYRQAPGTEREFVAAISRGSGSTYYADSVKGRFTISRDNAKNTVFLQMNSLKPEDTAVYYCAARSQLGYRTRYPTYYWGQGTQVTVSS`
Data returned: high polyreactivity

Data request: Please give the documented polyreactivity (PSR sort gate) of `QVQLVESGGGLVQAGGSLRLSCAASGRTFRTYTMGWYRQAPGKERELVAAITSTGSTYYADSVKGRFTISRDNAKNTVYLQMNSLKPEDTAVYYCAAVYVAVGLVYEKYDYWGQGTQVTVSS`
Data returned: high polyreactivity

Data request: Please give the documented polyreactivity (PSR sort gate) of `QVQLVESGGGLVQAGGSLRLSCAASGSTFRNYAMGWYRQAPGKERELVAAITKRGGTTYYADSVKGRFTISRDNAKNTCYLQMNSLKPEDTAVYYCATGYNSSPFDYWGQGTQVTVSS`
Data returned: high polyreactivity

###

assay_explanation: yeast display, Sf9 membrane polyspecificity reagent, FACS + sequencing; frameworks hold sequencing errors
parameter_measured: polyreactivity (PSR sort gate)

Here's what some known entries look like.
QVQLIESGGGLVQAGGSLRLSCAASGRTFKRYAMGWYRQAPGKERELVARITYSGARTYYADSVKGRFTISRDNAKNTVYLQMNSLKPEDTAVYYCAAQQYWTSQYFRSATFDYWGQGTQVTVSS :: high polyreactivity
QVQLVEEGGGLVQAGGSLRLSCAASGRISYYYTMGWYSQAPGKERELVAAISWSGGTTYYADSVKGRFTISRDNAKYTVYLQMYSLKPEDTAVYYCAARDYYTDFHGTRRYDYWGQGTLVTVSS :: low polyreactivity
QVQLVESGGGLVQAGGSLRLSCASSGSTIYYNAMGWYRQAPGKERELVAAISNAGSTYYADSVKGRFTISRDNAENTVYLQMNSLKPEDTAVYYCAKRFRGITYSYYYWGQGTQVTVSS :: high polyreactivity
QVQLVESGGGLVQAGGSLRLSCAASGGIFAPYAMGWYRQAPGKERELVADITSDGGSTYYADSVKGRFTISRDNAKNTVYLQMNSLKPEDTAVYYCAAEQRYCWWGHPGDYWGQGTQVTVSS :: low polyreactivity

Attention now shifts to the item below.
Data request: Please give the documented polyreactivity (PSR sort gate) of `QVQLVESGGGLVQAGGSLRLSCAASGRIFNGNAMGWYRQAPGNERELVAAISGSGGSTYYADSVKGRFTISRDNAKNTVYLQMNSLKPEDTAVYYCATKRVVHYNYWGQGTQVTVSS`
Data returned: high polyreactivity

###

assay_explanation: yeast display, Sf9 membrane polyspecificity reagent, FACS + sequencing; frameworks hold sequencing errors
parameter_measured: polyreactivity (PSR sort gate)

Here's what some known entries look like.
QVHLVESGGGLVQAGGSLRLSCAASGRIFVPYVMGWNRQAPGTERELVASISDSDTSTYYADSVKGRFTISRDNAKNTVYVEMISLKPEDTAVYDCNVDYWGQGTHVTVSS :: low polyreactivity
QVQLVESGGGLVQAGGSLRLSCAASGSIFAVYAMVWYRQAPGKERELVAAISWSVGSTYYADSVKGRFTISRDNAKNTVYLQMNRLKPEDTAVYYCAADLAYYLDYVEYFTEIELEGYWGQGTQVTVSS :: low polyreactivity
PVQLVESGGGLVQAGGTLRLSCDATGITFKLNAMGWYRQAPGKERELVAAITSTGGSTYYADSVKGRFTISRDNAKNTVYLQMNSLNPEDTAVYYCAADRYSYIFYYYWSYDYWGQCTQVTVSS :: high polyreactivity
QVQLVESGGGLVQAGGSLRLSCAASGRIFVFYVMGWYRQAPGKERELVAAITRTGGSTYYADSVKGRFTISRDNAKNTVYLQMNSLKPEDTAVYYCATRYTRLRHFDYWGQGTQVTVSS :: low polyreactivity
QVQLVESGGGLVQAGGSLRLSCAAAGTYKYYAMGWYRQAPGKERELVAASNRGGSTNYADSVKGRFTISRDNAKNTVYLQMNSLKPEDTAVYYCAAERWYVRGRHYFYWGQGTQVTVSS :: high polyreactivity
QVQLVESGGGLVQAGGSLRLSCAASGRIFSFNAMGWYRQAPGKERELVATISWNGDSTYADSVKGRFTISRDNAKNTVYLQMNSLKPEDTAVYYCAVDVPPWDYDYWGQGTQVTVSS :: low polyreactivity
QVQLQESGGGLVQVGGSQRLSCAASGNIFYNYAMGWYRHAHGKEREFDATINHGTSINYADSVKGRFTISRDNAKNTVYLQMNSLKPEDTAVYYCAADLSWTDNLFYWGQGTQVTVSS :: low polyreactivity
QVQLVESGGGLVQAGGSLRLSCAASGSIFRFNAMGWYRQAPGKERELVAAISDSGGRTYYADSVKGRFTISRDNAKNTVYLQMNSLKPEETAVYYCNAYVHSQGGDYWGQGTQVTVSS :: high polyreactivity
QVQLVESGGGLVQAGGSLRLSCAASGSIFGTNVMGWYRQAPGKERELVAAITASGSRTYYADSVKGRFTISRDNAKNTVYLQMNSLKPEDTAVYYCATVSRFGFKDFDYWGQGTQVTVSS :: high polyreactivity
QVQLVESGGGLVQAGGSLRLSCAASGSTFPFYAMGWYRQAPGKERELVATISSDGSTNYADSVKGRFTISRDNAKNTVYLQMNSLKPEDTAVYYCNALARWWAYYDYGYWGQGTQVTVSS :: low polyreactivity

Attention now shifts to the item below.
Data request: Please give the documented polyreactivity (PSR sort gate) of `QVQLVESGGGLVQAGGSLRLSCAASGFTFAYYTMGWYRQAPGKERELVAAINWSGGSTYYADSVKGRFTISRDYAKNTVYLQMNSLKPEDTAVYYCAAKSYWWATYDYWGQGTQVTVSS`
Data returned: high polyreactivity

###

assay_explanation: yeast display, Sf9 membrane polyspecificity reagent, FACS + sequencing; frameworks hold sequencing errors
parameter_measured: polyreactivity (PSR sort gate)

Here's what some known entries look like.
QVQLVESRGGLVQAGGSLRLSCAASGSTLSQNAMGWYRQAPGKEREFDADISGSGDSTYYADSVKGRFTISRDNAKNTFYLQMNSLKPEDTAVYYCATPSPHVGLKWEYDYWGQGTQVTVSS :: low polyreactivity
QVQLVESGGGLVQAGGSLRLSCSASGFTFYVNAMGWYRQAPGKERELVAAITDDGDSTYYADSVKGRFTISRDNAKNTVYLQMNSLKPEDTAVYYCKTVYGPDLDGTEYDYWGQGTQVTVSS :: low polyreactivity
QVQLVESGGGVVQAGGSLRLSCAASGSTCSWYVMGWYRQAPGKERELVASISRSGGSTYYADSVKGRFTISRDNAKNTVYLQMNSLKPEDTAVYYCAARQAGYSGRKLYYWAQGTQVTVSS :: low polyreactivity
QVQLVESGGGLVQAGGSLRLSCAASARIIFRNAMGWYRQAPGKERELVAAITYSGGSTYYADSVKGRFTISRDNAKNTVYLQMNSLKPEDTAVYYCGAGYWFCYSRVTRYDYWGQGTQVTVSS :: high polyreactivity
QVQLVESGGGLVQAGGRLRLSCAASGFTYRGNAMGWYRHAPGKERELVAAITSSDDSTYYADSVKGRFTISRDNAKITVYLQMNSLKPVDTAVYYCAAVANGYWTYEYWGQGTLVTVSS :: low polyreactivity

Data request: Please give the documented polyreactivity (PSR sort gate) of `QVQLVESGGGLVQAGGSLRLSCAASGSTFQSNAMGWYRQAPGKERELVATISWSGGITYADSVKGRFTISRDNAKNTVYLQMNSLKPEDNAVHYFTDPDFDYWGQGTQVTLSS`
Data returned: low polyreactivity

Data request: Please give the documented polyreactivity (PSR sort gate) of `QVQLVESGGGLVQAGGSLRLSCAASGNIFYPNAMGGSRQAPGKERGLVAAISSSGGSTYYADSVKGRFTISRDNAKNTVYLQINSLKPEDTAVYYCAKDRSYAYYWSPYPTGYDYWGQGTQVTVSS`
Data returned: low polyreactivity
